Reference source for all entries: ChEMBL document CHEMBL5214995

# assay.info: Aqueous solubility of the compound under shaking condition by LC-MS/MS analysis
# Assay type: physicochemical
# condition.description: buffer
measured.quantity: solubility thermodynamic (µg/mL)

>>> numeric_value("O=C(c1ccc2ncc(-c3ccc4cnccc4c3)nc2c1)N1CCCCC1")
14
>>> numeric_value("Cn1ccc2cc(-c3cnc4ccc(C(=O)N5CCCCC5)cc4n3)ccc2c1=O")
56

P. O=C(c1ccc2ncc(-c3ccc4ncccc4c3)nc2c1)N1CCCCC1
Q. O=C(c1ccc2ncc(-c3ccc4c(=O)[nH]ccc4c3)nc2c1)N1CCCCC1
Looking at recorded values for solubility thermodynamic, does P or Q come in lower? Respond using the label that marks the chosen record. Q
(Q: 4 µg/mL, P: 55 µg/mL)
